Data provenance: patent US9695154B2

target: recombinant human SAE enzyme (Homo sapiens); assay: SAE HTRF Enzyme Assay; settings: class symbols A-C
Sequence (Q9UBT2 whole entry): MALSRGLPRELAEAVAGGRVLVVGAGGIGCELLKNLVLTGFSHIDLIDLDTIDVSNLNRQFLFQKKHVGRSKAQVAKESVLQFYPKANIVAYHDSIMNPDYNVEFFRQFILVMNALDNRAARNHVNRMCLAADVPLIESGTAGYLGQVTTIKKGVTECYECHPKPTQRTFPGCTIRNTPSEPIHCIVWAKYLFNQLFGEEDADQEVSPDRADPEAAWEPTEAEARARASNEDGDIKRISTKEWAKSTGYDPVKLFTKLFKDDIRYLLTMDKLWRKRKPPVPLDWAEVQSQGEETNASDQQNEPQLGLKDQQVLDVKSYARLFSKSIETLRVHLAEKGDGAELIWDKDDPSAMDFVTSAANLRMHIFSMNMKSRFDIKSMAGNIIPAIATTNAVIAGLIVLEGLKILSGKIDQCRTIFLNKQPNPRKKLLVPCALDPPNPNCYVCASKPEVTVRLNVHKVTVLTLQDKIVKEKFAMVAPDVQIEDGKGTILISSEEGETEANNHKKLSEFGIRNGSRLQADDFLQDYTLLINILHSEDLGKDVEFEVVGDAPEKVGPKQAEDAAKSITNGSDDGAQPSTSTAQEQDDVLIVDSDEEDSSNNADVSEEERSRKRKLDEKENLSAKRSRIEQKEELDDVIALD
Sequence (Q9UBE0 whole entry partner): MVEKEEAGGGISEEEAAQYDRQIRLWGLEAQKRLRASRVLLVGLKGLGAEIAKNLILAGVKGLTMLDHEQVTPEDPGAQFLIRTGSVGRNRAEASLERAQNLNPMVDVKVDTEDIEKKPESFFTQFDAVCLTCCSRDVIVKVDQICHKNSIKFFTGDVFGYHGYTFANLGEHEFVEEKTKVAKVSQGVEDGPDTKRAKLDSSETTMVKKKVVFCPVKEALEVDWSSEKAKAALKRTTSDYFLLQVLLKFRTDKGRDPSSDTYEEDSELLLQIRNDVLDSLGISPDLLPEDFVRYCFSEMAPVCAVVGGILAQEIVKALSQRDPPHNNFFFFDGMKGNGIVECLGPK
pIC50: −log10 of the molar value.
propertyName: pIC50

Entry NS(=O)(=O)OC[C@H]1C[C@@H](Nc2ncncc2C(=O)c2ccn(Cc3cn4ccccc4n3)n2)C[C@@H]1O has what pIC50? > 8.00

Entry Cc1cccc(Cn2nc(C(=O)c3cncnc3N[C@@H]3C[C@H](COS(N)(=O)=O)[C@@H](O)C3)cc2C)c1 has what pIC50? > 8.00

Entry NS(=O)(=O)OC[C@H]1C[C@@H](Nc2ccncc2C(=O)c2ccn(Cc3cccc(OC(F)(F)F)c3)c2)C[C@@H]1O has what pIC50? 7.00 to 8.00

Entry NS(=O)(=O)OC[C@H]1C[C@@H](Nc2ncncc2C(=O)c2ccn(Cc3ccc(F)cc3C(F)(F)F)n2)C[C@@H]1O has what pIC50? 7.00 to 8.00

Entry COCc1cc(C(=O)c2cncnc2N[C@@H]2C[C@H](COS(N)(=O)=O)[C@@H](O)C2)nn1Cc1cccc(Br)c1 has what pIC50? > 8.00

Entry NS(=O)(=O)OC[C@H]1C[C@@H](Nc2ncncc2C(=O)c2ccn(Cc3c(F)ccc(F)c3F)n2)C[C@@H]1O has what pIC50? > 8.00
